Measured values drawn from PubChem BioAssay for this set.

Quick reference: composite z-score of the listed items.
- System: Fibrinogen (Alexa647-labelled)
- experimentalProtocol: Alexa647-fibrinogen binding to printed small molecules – biochemical, small-molecule microarray, 635/667 nm fluorescence, artefact control for SMM control-protein annotation, profiling panel (AID 1131);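 note: z-score merges 667 nm fluorescence with per-spot signal-to-noise over triplicate slides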
- settings: fibrinogen-A647 binding fluorescence, higher = more signal
Answer with the value's number alone.

The cases that follow already have their composite z-score on record.
# molecule, measValue
measured = [
    ("COCCOC(=O)N1C(=O)[C@@]2(c3cc(C#CCNC(N)=O)ccc31)[C@H](C(=O)Nc1nc3ccccc3s1)[C@H]1C(=O)O[C@H](c3ccccc3)[C@H](c3ccccc3)N1[C@@H]2c1ccccc1OCCO", 0.749),
    ("COc1ccc(C(=O)Nc2ccc(CN3C(=O)[C@@]4(O[C@@H](CCn5cc(CCO)nn5)[C@H]([Si](C)(C)c5ccc(OC)cc5)[C@H]4C)c4ccccc43)cc2)cc1", 0.874),
    ("COC(=O)[C@@]1(Cc2ccc(OC)cc2)[C@H]2c3cc(C(=O)N4CCCC4)n(Cc4ccc(C(F)(F)F)nc4)c3C[C@H]2CN1C(=O)c1ccccc1", 0.683),
    ("C=CC1c2cc(O)c(OC)cc2CCN1C (stereo unspecified)", -0.934),
    ("C=CCC(OC(C)=O)[C@@H]1[C@@H](N(Cc2cc3ccccc3o2)C(=O)Cc2ccc(OC)cc2)c2cc(OCCCO)ccc2N1C(=O)c1ccc2ccccc2n1 (stereo partly specified)", 0.301),
]

Query :: Data request, read-out composite z-score, for "COC(=O)[C@@]1(Cc2ccc(F)cc2)[C@H]2c3cc(C(=O)N(C)C)n(CCc4ccc(O)c(O)c4)c3C[C@H]2CN1C(=O)c1ccccc1"
Result :: 0.823

###

- targetDesc: Pro-neuregulin-1, membrane-bound isoform (Homo sapiens) (UniProt Q02297)
- Sequence (Q02297 whole entry, looked up, canonical isoform): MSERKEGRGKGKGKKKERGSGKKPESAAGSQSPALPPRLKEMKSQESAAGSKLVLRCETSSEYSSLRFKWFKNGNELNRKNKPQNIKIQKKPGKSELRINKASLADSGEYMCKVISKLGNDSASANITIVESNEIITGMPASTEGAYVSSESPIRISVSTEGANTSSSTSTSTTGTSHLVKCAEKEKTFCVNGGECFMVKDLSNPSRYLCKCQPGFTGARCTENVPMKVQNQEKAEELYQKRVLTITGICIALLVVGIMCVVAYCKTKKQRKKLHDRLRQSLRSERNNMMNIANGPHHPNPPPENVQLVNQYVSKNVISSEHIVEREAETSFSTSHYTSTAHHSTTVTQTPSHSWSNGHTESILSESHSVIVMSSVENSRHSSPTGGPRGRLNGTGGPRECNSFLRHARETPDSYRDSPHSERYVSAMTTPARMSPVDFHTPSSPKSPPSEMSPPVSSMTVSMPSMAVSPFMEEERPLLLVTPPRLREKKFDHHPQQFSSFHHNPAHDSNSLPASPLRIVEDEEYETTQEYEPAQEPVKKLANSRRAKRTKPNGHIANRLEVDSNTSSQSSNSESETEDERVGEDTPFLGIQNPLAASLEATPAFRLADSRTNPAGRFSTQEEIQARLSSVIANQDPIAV
- experimentalProtocol: small molecules binding neuregulin-1 protein – biochemical, small-molecule microarray, fluorescence 635/667, psychiatric disease protein project, primary screen (AID 1075);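 note: score combines 667 nm spot fluorescence with signal to noise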
- settings: NRG1 binding, 635 nm fluorescence, higher = more signal
Kindly return class 1 if reported composite z-score is no lower than 1; return class 0 if it is lower.

// known answers, use as guide
# compound, targetDesc, classLabel
rows = [
    ("C=CCC(OC(C)=O)[C@@H]1[C@@H](N(Cc2ccc(-c3ccccc3)cc2)C(=O)c2cccc3ccccc23)c2cc(OCCCO)ccc2N1C(=O)Cc1ccc(OC)cc1 (stereo partly specified)", "Pro-neuregulin-1, membrane-bound isoform (Homo sapiens) (UniProt Q02297)", "class 0"),
    ("COC(=O)C(CC#Cc1ccc2c(c1)[C@]1(C(=O)N2)[C@H](C(=O)N2CCc3cc(OC)c(OC)cc3C2)[C@H]2C(=O)O[C@H](c3ccccc3)[C@H](c3ccccc3)N2[C@@H]1c1ccccc1OCCO)C(=O)OC", "Pro-neuregulin-1, membrane-bound isoform (Homo sapiens) (UniProt Q02297)", "class 1"),
    ("COCCOC(=O)N1C(=O)[C@@]2(c3cc(C#CCC(C(=O)OC)C(=O)OC)ccc31)[C@H](c1ccc(O)cc1)N1[C@H](c3ccccc3)[C@H](c3ccccc3)OC(=O)[C@H]1[C@@H]2C(=O)Nc1nc2ccccc2s1", "Pro-neuregulin-1, membrane-bound isoform (Homo sapiens) (UniProt Q02297)", "class 1"),
]

Query :: Kindly determine if composite z-score recorded for "O=C1C[C@@](C(=O)O)(c2ccc([N+](=O)[O-])cc2)[C@@H](c2ccc(CO)cc2)N1C1CCCCC1" is above or exactly 1.
Result :: class 1

Query :: Kindly determine if composite z-score recorded for CC(C)(C)N1CC=CC23O[C@@H]4C=CCCOC(=O)C4[C@H]2C(=O)N(CCCCCCO)[C@@H]3C1=O (stereo partly specified) is above or exactly 1.
Result :: class 1

Query :: Kindly determine if composite z-score recorded for "O=C1O[C@H](Cc2ccccc2)[C@@H]2[C@H]3C=CCCC=C3CN2[C@H]1Cc1ccc(O)cc1" is above or exactly 1.
Result :: class 0
